Values compiled from patent US20240010720A1.

We begin with a simple list: items and their reported EC50.
system.name: T1, IGSF11 ECD fused to murine-Fc (human; mouse, UniProt Q5DX21 23-241)
T1 construct: also called Fc-fusion IGSF11 ECD; full-length ECD of IGSF11; not shown: murine Fc
T1 sequence: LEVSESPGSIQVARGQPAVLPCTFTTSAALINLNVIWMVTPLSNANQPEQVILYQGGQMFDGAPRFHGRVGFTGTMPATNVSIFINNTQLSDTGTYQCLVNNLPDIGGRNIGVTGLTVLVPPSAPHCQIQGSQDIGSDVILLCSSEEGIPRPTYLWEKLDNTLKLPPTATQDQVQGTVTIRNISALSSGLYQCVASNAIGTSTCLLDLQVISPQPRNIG
method.description: ELISA, IgG

binder: C-008 (IgG1 format) (antibody, V domains shown, wildtype human IgG1 and kappa or lambda constant regions) VH: EVQLLESGGGLVQPGGSLRLSCAASGFTFSSYAMSWVRQAPGKGLEWVSAISGSGGSTYYADSVKGRFTISRDNSKNTLYLQMNSLRAEDTAVYYCTTDNGHNRDWGQGTLVTVSS VL: ASVLTQPPSVSAAPGQKVTISCSGSSSNIGNNYVSWYQQLPGTAPKLLIYDNNKRPSGIPDRFSGSKSGTSATLGITGLQAEDEADYYCGTWTRSSGVFGGGTKLTVL
EC50: < 1 nM
//
binder: C-022 (IgG1 format) (antibody, V domains shown, wildtype human IgG1 and kappa or lambda constant regions) VH: EVQLLESGGGLVQPGGSLRLSCAASGFTFSSYAMSWVRQAPGKGLEWVSAISGSGGSTYYADSVKGRFTISRDNSKNTLYLQMNSLRAEDTAAYYCARMAAGASWGTFDYWSQGTLVTVSS VL: DIQMTQSPSSLSASVGDRVTITCRASQSISSYLNWYQQKPGKAPKLLIYAASSLQSGVPSRFSGSGSGTDFTLTISSLQPEDFATYYCQQRSGSPLTFGQGTKVEIK
EC50: 1 to 20 nM
//
binder: C-011 (IgG1 format) (antibody, V domains shown, wildtype human IgG1 and kappa or lambda constant regions) VH: QVQLVQSGAEVKKPGSSVKVSCKASGGTFSSYAISWVRQAPGQGLEWMGGIIPIFGTANYAQKFQGRVTITADESTSTAYMELSSLRSEDTAVYYCARHSTPSFLQYWGQGTLVTVSS VL: SYELTQPPSVSVSPGQTASITCSGDKLGDKYASWYQQKPGQSPVLVIYQDSKRPSGIPERFSGSNSGNTATLTISGTQAEDEADYYCAVYPAHASARWVFGGGTKLTVL
EC50: < 1 nM
